Test system: cells of viro-induced leukemia of Friend
measurement notes: In vitro cytotoxic study on cells of the Friend leukemia of the mouse (Table XV)
Format: cell-based
experimental parameters: Mus musculus, 24 h, read-out: LD 50 (50% lethal dose)
Field: label. Allowed values: true (IC50 < 500 nM) or false (IC50 >= 500 nM).

| compound | group |
| --- | --- |
| CCN(CC)CCCC(C)Nc1nccc2c(C)c3[nH]c4ccc(OC)cc4c3cc12 (centres unmarked) | false |
| COc1ccc2[nH]c3c(C)c4ccnc(NCCCN(C)C)c4cc3c2c1 | false |
| COc1ccc2[nH]c3c(C)c4ccnc(NCCCN)c4c(C)c3c2c1 | true |
| COc1ccc2[nH]c3c(C)c4ccnc(NCCCN)c4cc3c2c1 | true |

---

Measured IC50 values are reported for all entries that follow.
Tested on: cells of viro-induced leukemia of Friend
measurement notes: In vitro cytotoxic study on cells of the Friend leukemia of the mouse (Table XV)
Assay type: cell-based
experimental parameters: Mus musculus, 24 h, read-out: LD 50 (50% lethal dose)

| compound | units label | IC50 |
| --- | --- | --- |
| Cc1c2ccnc(NCCCN)c2cc2c1[nH]c1ccc(OCc3ccccc3)cc12 [Compound 23] | nM | 300 |
| COc1ccc2[nH]c3c(C)c4ccnc(NCCN)c4cc3c2c1 [Compound 11] | nM | 100 |
| CCN(CC)CCCNc1nccc2c(C)c3[nH]c4ccc(OC)cc4c3cc12 [Compound 18] | nM | 500 |
| COc1ccc2[nH]c3c(C)c4ccnc(NCCCCN)c4cc3c2c1 [Compound 13] | nM | 7000 |
| CCN(CC)CCCNc1nccc2c(C)c3[nH]c4ccc(OC)cc4c3c(C)c12 [Compound 27] | nM | 450 |
| CCN(CC)CCCNc1nccc2c(C)c3[nH]c4ccc(OCc5ccccc5)cc4c3cc12 [Compound 24] | nM | 3000 |
| CCN(CC)CCCNc1nccc2c(C)c3[nH]c4ccc(O)cc4c3cc12 [Compound 29] | nM | 17 |
| COc1ccc2[nH]c3c(C)c4ccnc(NCCN(C)C)c4cc3c2c1 [Compound 16] | nM | 800 |

---

Tested on: cells of viro-induced leukemia of Friend
measurement notes: In vitro cytotoxic study on cells of the Friend leukemia of the mouse (Table XV)
Assay type: cell-based
experimental parameters: Mus musculus, 24 h, read-out: LD 50 (50% lethal dose)

| compound | IC50 [nM] |
| --- | --- |
| COc1ccc2[nH]c3c(C)c4ccnc(N5CCCCC5)c4cc3c2c1 [Compound 21] | 35000 |
| Cc1c2cc[n+](C)cc2c(C)c2c1[nH]c1ccc(O)cc12 [HUM, 2-methyl-9-hydroxy ellipticinium acetate, reference compound] | 300 |
| COc1ccc2[nH]c3c(C)c4ccnc(NCCCCCCN)c4cc3c2c1 [Compound 15] | 800 |
| COc1ccc2[nH]c3c(C)c4ccnc(NCCCN(C)C)c4c(C)c3c2c1 [Compound 26] | 400 |

---

Tested on: leukemia L1210
measurement notes: Leukemia L1210 in vivo, measurement of survival time (Table XII)
Parameters: species or system B6 D2 Fl (C 57 Bl/6×DBA/2) Fl mice; unit not given here
experimental parameters: 10^5 cells; i.p.; 10 mg/kg; day +4
Consider the following compounds and their measured MST readings.
quantity name: MST

| compound | quantity name | data value |
| --- | --- | --- |
| COc1ccc2[nH]c3c(C)c4ccnc(NCCCN(C)C)c4c(C)c3c2c1 [Compound 26] | MST | 14.4 |
| COc1ccc2[nH]c3c(C)c4ccnc(NCCCN)c4c(C)c3c2c1 [Compound 25] | MST | 12.6 |
| CCN(CC)CCCC(C)Nc1nccc2c(C)c3[nH]c4ccc(OC)cc4c3cc12 (centres unmarked) [Compound 19] | MST | 13 |
| CCN(CC)CCCNc1nccc2c(C)c3[nH]c4ccc(OC)cc4c3c(C)c12 [Compound 27] | MST | 20 |
| CCN(CC)CCCNc1nccc2c(C)c3[nH]c4ccc(O)cc4c3cc12 [Compound 29] | MST | 16.2 |

Data provenance is patent US4434290A.
